Target: Rap guanine nucleotide exchange factor 3 (Homo sapiens) (UniProt O95398)
Sequence (O95398 whole entry, looked up): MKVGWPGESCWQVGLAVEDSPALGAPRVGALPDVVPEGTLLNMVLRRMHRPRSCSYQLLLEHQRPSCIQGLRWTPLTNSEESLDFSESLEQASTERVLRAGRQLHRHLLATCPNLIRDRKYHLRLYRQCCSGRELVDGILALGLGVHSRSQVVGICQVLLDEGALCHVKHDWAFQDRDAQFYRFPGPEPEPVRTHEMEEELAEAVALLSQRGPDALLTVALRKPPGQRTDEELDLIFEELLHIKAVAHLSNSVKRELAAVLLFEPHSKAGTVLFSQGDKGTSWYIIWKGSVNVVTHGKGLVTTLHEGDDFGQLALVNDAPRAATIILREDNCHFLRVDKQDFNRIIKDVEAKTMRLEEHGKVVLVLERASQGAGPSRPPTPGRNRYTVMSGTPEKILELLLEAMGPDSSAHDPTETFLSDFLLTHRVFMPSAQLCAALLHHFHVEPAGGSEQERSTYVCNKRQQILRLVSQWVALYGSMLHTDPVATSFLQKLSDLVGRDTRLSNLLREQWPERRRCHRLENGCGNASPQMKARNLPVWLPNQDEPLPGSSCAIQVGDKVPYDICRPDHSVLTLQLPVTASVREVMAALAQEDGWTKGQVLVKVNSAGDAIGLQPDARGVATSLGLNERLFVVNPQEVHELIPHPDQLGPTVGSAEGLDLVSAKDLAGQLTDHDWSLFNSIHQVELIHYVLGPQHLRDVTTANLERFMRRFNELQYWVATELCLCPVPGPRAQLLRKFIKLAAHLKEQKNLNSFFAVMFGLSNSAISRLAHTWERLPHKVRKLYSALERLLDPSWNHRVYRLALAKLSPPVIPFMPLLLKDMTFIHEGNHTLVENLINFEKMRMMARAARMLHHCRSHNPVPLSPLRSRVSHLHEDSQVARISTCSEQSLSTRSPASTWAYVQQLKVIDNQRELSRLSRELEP
Assay: Counterscreen qHTS for antagonist of cAMP-regulated guanine nucleotide exchange factor 3 (EPAC1) (AID 1645888);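 further: fluorescence loss as bound BODIPY-GDP is released from Rap1B; % of control where 0% means no effect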
Conditions: Rap1B-BODIPY-GDP nucleotide exchange, fluorescence; series mostly up to 154 µM
Inconclusive results are not listed. The source made the active and inactive calls. The call rests on the fitted dose curve; in most records, active means well fitted inhibition curve with a large enough effect; inconclusive means small, poorly fitted or top-dose-only effect; inactive means no such curve, though single readings can be large or run the other way.
measurement_name: activity change, negative = inhibition

- smiles_structure: "Cc1ccc(S(=O)(=O)N2[C@@H](c3ccc(Cl)c(Cl)c3)C(C(=O)O)=C[C@H]2CC2CCCC2)cc1"
  activity change, negative = inhibition: "-8.49% [at 30.8 µM] (inactive)"
- smiles_structure: "CCc1cccc2c(C(=O)COC(=O)c3nccnc3N)c[nH]c12"
  activity change, negative = inhibition: "inactive"
- smiles_structure: "Cc1cc(-c2csc(N)n2)c(C)n1CCC(C)C"
  activity change, negative = inhibition: "inactive"
- smiles_structure: "O=C(COC(=O)Cc1ccc(Cl)cc1)Nc1ccc2[nH]c(=O)[nH]c2c1"
  activity change, negative = inhibition: "-14.8% [at 30.8 µM] (inactive)"
- smiles_structure: "CCCC(=O)O[C@@H]1C[C@@H](C)N(C(=O)c2ccccc2)c2ccc(C)cc21"
  activity change, negative = inhibition: "inactive"
- smiles_structure: "C[C@@H](c1ccccc1)N1Cc2ccccc2Oc2cc(Br)ccc2S1(=O)=O"
  activity change, negative = inhibition: "inactive"

Batch of 4 compounds: report activity change, negative = inhibition for each.
1. Cc1cc(SCC(=O)c2ccc(O)c(O)c2)nc2ccccc12
2. Cc1cc(C)c(-c2c(N)cc(Br)cc2Br)c(N)c1
3. Cc1nc2cc(NC(=O)CCS(=O)(=O)c3ccccc3)ccc2s1
4. O=C1S/C(=C\c2ccc(N3CCOCC3)o2)C(=O)N1c1ccccc1

Resp:
["-6.86% [at 30.8 µM] (inactive)", "inactive", "-11.5% [at 30.8 µM] (inactive)", "inactive"]

====

Experiment: qHTS Assay for Lipid Storage Modulators (AID 1519); further: on the % scale 0 is the no-effect control and ±100 the full control effect
Conditions: Drosophila S3 cells, BODIPY lipid droplet/cell ratio, laser cytometry; at 25.7 µM (top of the series); cells loaded with oleic acid
Results filed as inconclusive are left out.
I'd appreciate it if you could supply activity change, negative = inhibition values for the items below.
Give bare numbers, in %.

Here's what some known entries look like.
- compound: "C=C1c2c(Cl)ccc(O)c2C(O)=C2C(=O)[C@@]3(O)C(O)=C(C(N)=O)C(=O)[C@@H](N(C)C)[C@@H]3[C@@H](O)[C@H]12"
  activity change, negative = inhibition, %: 1.11
- compound: "CC1(C)S[C@@H]2[C@H](NC(=O)COc3ccccc3)C(=O)N2[C@H]1C(=O)O (tested in a mixture with another compound)"
  activity change, negative = inhibition, %: 1.44
- compound: "NC(=O)c1cc[n+](CC2=C(C(=O)[O-])N3C(=O)[C@@H](NC(=O)Cc4cccs4)[C@@H]3SC2)cc1"
  activity change, negative = inhibition, %: -1.16
- compound: "Clc1ccc([C@H](Cn2ccnc2)OCc2c(Cl)cccc2Cl)c(Cl)c1"
  activity change, negative = inhibition, %: -0.836
- compound: "CCOC(=O)C1=C(C)NC(C)=C(C(=O)OC)[C@@H]1c1cccc([N+](=O)[O-])c1"
  activity change, negative = inhibition, %: 0.673

Now look at this entry.
Req: // returns reported activity change, negative = inhibition for input CC[C@@H]1OC(=O)[C@H](C)[C@H](O[C@@H]2C[C@](C)(OC)[C@H](O)[C@H](C)O2)[C@H](C)[C@H](O[C@@H]2O[C@@H](C)C[C@@H](N(C)C)[C@@H]2O)[C@](C)(O)C[C@H](C)C(=NOCOCCOC)[C@H](C)[C@H](O)[C@]1(C)O
Resp: 0.83

====

Target: Rap guanine nucleotide exchange factor 3 (Homo sapiens)
Test: Counterscreen qHTS for antagonist of cAMP-regulated guanine nucleotide exchange factor 3 (EPAC1) (AID 1645888);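 further: fluorescence loss as bound BODIPY-GDP is released from Rap1B; % of control where 0% means no effect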
Settings: Rap1B-BODIPY-GDP nucleotide exchange, fluorescence; series mostly up to 154 µM
Inconclusive results are not listed. The source made the active and inactive calls. Calls follow the shape of the dose curve; as a rule, active = well fitted inhibition curve with a large enough effect; inconclusive = small, poorly fitted or top-dose-only effect; inactive = no such curve, though single readings can be large or run the other way.
measurement_name: activity change, negative = inhibition

Here's what some known entries look like.
- compound: "COC(=O)c1cc2sccc2n1Cc1ccc(F)cc1"
  activity change, negative = inhibition: "inactive"
- compound: "COc1ccc(C(=O)Nc2ccc(-c3cc4ccccc4oc3=O)c(C)c2)cc1OC"
  activity change, negative = inhibition: "inactive"
- compound: "Cc1cc(C)c(C)c(S(=O)(=O)Nc2cccc(S(=O)(=O)Nc3ccccc3C(=O)O)c2)c1C"
  activity change, negative = inhibition: "-6.25% [at 30.8 µM] (inactive)"
- compound: "CS(=O)(=O)N1N=C(c2ccco2)CC1c1ccc(Cl)cc1Cl (configuration not stated)"
  activity change, negative = inhibition: "3.91% [at 30.8 µM] (inactive)"
- compound: "CS(=O)(=O)c1ccc2c(c1)sc1nc(=O)c(/C=C3/C=CC(=O)C(O)=C3)c(N)n12"
  activity change, negative = inhibition: "inactive"

Batch of 7 compounds: report activity change, negative = inhibition for each.
1. Cc1ccc2[nH]cc(C(c3ccccc3)c3cccs3)c2c1 (configuration not stated)
2. CC1=NN(c2ccccc2)C(=O)C1/C=C1\NC(=S)NC1=O (configuration not stated)
3. Cc1ccc(NC(=O)c2ccc(Cl)c(S(=O)(=O)N3CCc4ccccc43)c2)nc1
4. O=C(Cn1cc(SCc2ccc(Cl)cc2)c2ccccc21)N1CCCC1
5. Cc1ccc(C(C)C)cc1OCC(=O)NC1CCCCCCC1
6. C=CC(=C)CC(NC)c1ccccc1 (configuration not stated)
7. Cc1ccc(C(=O)Nc2sc(C)c(C)c2C(=O)c2ccccc2)cc1

Resp:
1. inactive
2. inactive
3. inactive
4. inactive
5. -15.5% [at 30.8 µM] (inactive)
6. inactive
7. -1.59% [at 30.8 µM] (inactive)

Batch of 6 compounds: report activity change, negative = inhibition for each.
1. O=C(OC1CCOC1=O)c1ccc(-c2nc3ccccc3s2)s1 (configuration not stated)
2. Cc1ccc(Cl)c2c1N[C@@H](c1ccc(C(=O)O)cc1)[C@H]1CC=C[C@@H]21
3. O=C(NC1CCC(O)CC1)c1cccc2cccnc12 (configuration not stated)
4. O=C(c1ccccc1)c1nn(-c2ccccc2)c(=O)cc1-c1ccccc1
5. Cc1ccc(-c2cn3c(n2)sc2cc(C(=O)NCCC4=CCCCC4)ccc23)c(C)c1
6. O=C(CCC1CCCC1)Nc1ccc([N+](=O)[O-])cn1

Resp:
1: inactive; 2: inactive; 3: inactive; 4: inactive; 5: inactive; 6: inactive

Batch of 4 compounds: report activity change, negative = inhibition for each.
1. CCN(CC(=O)Nc1ccc(NC(C)=O)cc1)CC(=O)Nc1ccc(F)c(Cl)c1
2. Cc1cc(N)c2cc(NC(=O)/C=C/c3ccccc3Cl)ccc2n1
3. CCOc1cc(/C=C2\C(=N)N3N=C(S(=O)(=O)CC)SC3=NC2=O)ccc1OC(=O)c1ccco1
4. Cn1nc(-c2ccccn2)nc2c(=O)n(C)c(=O)nc1-2

Resp:
1. 3.51% [at 30.8 µM] (inactive)
2. inactive
3. inactive
4. inactive

Batch of 6 compounds: report activity change, negative = inhibition for each.
1. Cc1cc(C)c(OCC(=O)Nc2ccccc2N2CCCCC2)c(C)c1
2. Cc1ccc(C)c(COC(=O)c2cc(S(=O)(=O)N3CCCCC3)ccc2N2CCOCC2)c1
3. CCN(CCNC(=O)C1CCN(S(=O)(=O)c2cccc3cccnc23)CC1)c1ccccc1
4. CCCCN1C(=O)/C(=C/C=C2\Oc3ccccc3N2CC)SC1=S
5. COc1ccc(C(=O)c2ccccc2)c2c(O)ccc(C(=O)c3ccccc3)c12
6. Cn1cc(C(=O)N/N=C/C2=C(N3CCOCC3)C(=C\c3ccccc3)/CC2)ccc1=O

Resp:
1: inactive; 2: inactive; 3: inactive; 4: inactive; 5: inactive; 6: -15% [at 30.8 µM] (inactive)

Batch of 8 compounds: report activity change, negative = inhibition for each.
1. CC(C)(C)c1nc(-c2ccccc2)nc2c1OCCC2
2. O=C(O)c1[nH]c2ccccc2c1C(c1cc(Br)ccc1O)c1c(C(=O)O)[nH]c2ccccc12
3. O=C(O)c1cccc(N/N=C/c2cc(Br)cc(Br)c2O)c1
4. CN(C)C(=O)c1cccc(-c2cnc3c(NC=O)cc(-c4ccc(F)cc4)cn23)c1
5. Fc1cccc(Cc2c(-c3ccccc3)nc3ccc(Cl)cn23)c1
6. CN1/C(=C\C=C(/C#N)C(=O)Nc2ccccc2F)C(C)(C)c2ccccc21
7. CCOC(=O)N1CCN(c2ccc(S(=O)(=O)N(Cc3ccccc3)Cc3ccccc3)cn2)CC1
8. COc1ccc(C(=O)NCCONC(=O)c2ccc(OC)cc2)cc1

Resp:
1. inactive
2. -16.3% [at 30.8 µM] (inactive)
3. inactive
4. inactive
5. inactive
6. inactive
7. inactive
8. inactive

Batch of 6 compounds: report activity change, negative = inhibition for each.
1. O=C(CCc1ccc(O)c(O)c1)N/N=C/c1cc2c(cc1[N+](=O)[O-])OCO2
2. Cn1cccc1C(=O)NC(=O)COC(=O)c1cc(S(=O)(=O)N2CCCCC2)ccc1Cl
3. COc1ccc(CCNC(=O)c2c(C)nn(-c3ccc(F)cc3)c2-n2cccc2)cc1OC
4. Cc1ccc(-n2c(SCC(=O)N/N=C/c3ccccc3C(=O)O)nnc2-c2ccc(Cl)cc2)cc1
5. CC(=O)NC(CCS(C)(=O)=O)C(=O)Nc1cc(C)on1 (configuration not stated)
6. N#C/C(=C\c1ccc(O)c([N+](=O)[O-])c1)c1nc2ccccc2s1

Resp:
["inactive", "inactive", "inactive", "inactive", "inactive", "inactive"]
